Target: T1, Axl protein (human, UniProt P30530 26-451)
T1 construct: extracellular domain; also called human Axl; hAxl
T1 sequence (looked up): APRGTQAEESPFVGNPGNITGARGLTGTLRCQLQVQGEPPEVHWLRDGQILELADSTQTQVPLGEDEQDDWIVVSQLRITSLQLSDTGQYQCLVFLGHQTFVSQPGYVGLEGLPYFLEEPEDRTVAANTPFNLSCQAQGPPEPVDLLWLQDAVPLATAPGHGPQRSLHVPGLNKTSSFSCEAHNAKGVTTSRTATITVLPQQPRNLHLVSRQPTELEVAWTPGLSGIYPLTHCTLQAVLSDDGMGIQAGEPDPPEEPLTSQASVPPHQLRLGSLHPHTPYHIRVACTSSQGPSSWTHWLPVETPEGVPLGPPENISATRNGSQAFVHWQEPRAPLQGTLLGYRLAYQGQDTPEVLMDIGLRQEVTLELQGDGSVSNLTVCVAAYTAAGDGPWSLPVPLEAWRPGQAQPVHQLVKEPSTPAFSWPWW
Assay: ELISA, 1:9 dilution, pH 6.0 over pH 7.4
Quick list: Affinity ELISA CPE mutant ratio (1:9, pH 6.0/7.4) per entry.
Number in ratio, nothing else.

- LC-P095S (antibody, V domains shown) VH: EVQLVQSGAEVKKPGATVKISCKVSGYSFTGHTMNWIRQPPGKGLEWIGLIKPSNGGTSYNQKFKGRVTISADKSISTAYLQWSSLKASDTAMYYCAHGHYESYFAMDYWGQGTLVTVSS VL: DIQMTQSPSSLSASVGDRVTITCKASQDVSSAVAWYQQKPGQAPRLLIYWASTRHTGVPSRFSGSGSGTEFTLTISSLQPDDFATYYCQEHFSTSLTFGQGTKVEIK: 3.51
- LC-A032M (antibody, V domains shown) VH: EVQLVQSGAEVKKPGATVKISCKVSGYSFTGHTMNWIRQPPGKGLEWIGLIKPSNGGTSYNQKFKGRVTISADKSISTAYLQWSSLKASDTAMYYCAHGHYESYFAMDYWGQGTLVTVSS VL: DIQMTQSPSSLSASVGDRVTITCKASQDVSSMVAWYQQKPGQAPRLLIYWASTRHTGVPSRFSGSGSGTEFTLTISSLQPDDFATYYCQEHFSTPLTFGQGTKVEIK: 2.92

query: Affinity ELISA CPE mutant ratio (1:9, pH 6.0/7.4) for LC-H091F (antibody, V domains shown) VH: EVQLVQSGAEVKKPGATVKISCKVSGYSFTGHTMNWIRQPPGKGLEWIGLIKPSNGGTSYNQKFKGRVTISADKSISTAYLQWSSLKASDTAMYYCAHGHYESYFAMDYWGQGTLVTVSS VL: DIQMTQSPSSLSASVGDRVTITCKASQDVSSAVAWYQQKPGQAPRLLIYWASTRHTGVPSRFSGSGSGTEFTLTISSLQPDDFATYYCQEFFSTPLTFGQGTKVEIK ?
result: 2.12

Attribution: patent US20190177417A1
